So I've got a bunch of substances here, and I need their amyloid nucleation score values.
Assay: amyloid nucleation score (Sup35N fusion, yeast selection) (log enrichment); library NNK2; higher = more nucleation; inactive = no reads after selection;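 further: zero at mode of non-aggregating sequences after 7 days selection at 30°C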
Quick one: just the number, no unit, thanks!

Prompt: What value of amyloid nucleation score has been reported for the following substance? YYIMCFSSGCDPLPQHCGWE
Response: -0.821

Prompt: What value of amyloid nucleation score has been reported for the following substance? NTLEPWMKYSMCLFDKISPT
Response: -0.391

Prompt: What value of amyloid nucleation score has been reported for the following substance? NNKLSRV
Response: -0.661

Prompt: What value of amyloid nucleation score has been reported for the following substance? IVLSGWLSSPSYASWDFCMR
Response: 0.07

Prompt: What value of amyloid nucleation score has been reported for the following substance? SFSRSGFCHMCSLSALTGLR
Response: -0.196

Prompt: What value of amyloid nucleation score has been reported for the following substance? PRSYWRSYWAKVLDYQLIPR
Response: 3.55

Prompt: What value of amyloid nucleation score has been reported for the following substance? CSWGCNDFRSCLALVMDCHA
Response: 1.02

Prompt: What value of amyloid nucleation score has been reported for the following substance? MIVFLYRLY
Response: -0.061

Prompt: What value of amyloid nucleation score has been reported for the following substance? LMLFDVKGRICGFDLCLIRR
Response: 0.381

Prompt: What value of amyloid nucleation score has been reported for the following substance? RSCSFRRLSGSVETLSGWAK
Response: 0.35

Prompt: What value of amyloid nucleation score has been reported for the following substance? MNIFKYFQSSSETMLTLKCT
Response: -0.724

Prompt: What value of amyloid nucleation score has been reported for the following substance? GMSYTLYQSWTVDHTVILPP
Response: 3.99

Prompt: What value of amyloid nucleation score has been reported for the following substance? RFPVGRLFWQEFRYSDQGVA
Response: 1.17

Prompt: What value of amyloid nucleation score has been reported for the following substance? FVEMYGLWPSFGVKRKVLKV
Response: -0.904

Prompt: What value of amyloid nucleation score has been reported for the following substance? NIGKMLRALFDMSNVRT
Response: -1.17

Prompt: What value of amyloid nucleation score has been reported for the following substance? HIRDTESTTLVRVRGCSSPK
Response: 0.07

Prompt: What value of amyloid nucleation score has been reported for the following substance? CISVPMIFDFTIWA
Response: 6.64

Prompt: What value of amyloid nucleation score has been reported for the following substance? WRGLGVLYVSCVDSRVSSI
Response: -1.73

Prompt: What value of amyloid nucleation score has been reported for the following substance? FRVIYDRHTGILRSHERAKG
Response: -0.551

Prompt: What value of amyloid nucleation score has been reported for the following substance? LYLTGNF
Response: -0.199

Prompt: What value of amyloid nucleation score has been reported for the following substance? ILDRYLVHGI
Response: -0.394

Prompt: What value of amyloid nucleation score has been reported for the following substance? LIFFCLFEYRLRLHCNRRDH
Response: -1.34

Prompt: What value of amyloid nucleation score has been reported for the following substance? FVNIFIIHADYVGHRPAELR
Response: 9.09

Prompt: What value of amyloid nucleation score has been reported for the following substance? PPCYALDRFLSGSLTVLSPV
Response: -0.36

Prompt: What value of amyloid nucleation score has been reported for the following substance? RKWQED
Response: 0.488

Prompt: What value of amyloid nucleation score has been reported for the following substance? VHFMIMQNSNCYCVKHIDFM
Response: 9.43

Prompt: What value of amyloid nucleation score has been reported for the following substance? DIKYCRSFCWLSTIFRTLGP
Response: 0.249

Prompt: What value of amyloid nucleation score has been reported for the following substance? FAYSLTPFRWSRDLLMSPLG
Response: 0.104

Prompt: What value of amyloid nucleation score has been reported for the following substance? NVHDEWKGFVSGTCGKVEKA
Response: 0.355

Prompt: What value of amyloid nucleation score has been reported for the following substance? TMFTFIAANSRWLNAKIPWY
Response: 0.157

Prompt: What value of amyloid nucleation score has been reported for the following substance? WWSSDS
Response: 1.73

Prompt: What value of amyloid nucleation score has been reported for the following substance? HVRHGESLFFANQA
Response: -0.038
